Reported self-cleavage values are given for each entry in this list.
B1: HDV Ribozyme (parent)
chain: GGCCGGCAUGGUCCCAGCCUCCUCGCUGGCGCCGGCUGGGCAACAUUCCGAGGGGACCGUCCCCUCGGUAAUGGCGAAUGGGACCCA

# Variants of: B1
# assay method text: self-cleavage, relative activity (ratio to wild type); higher = more cleavage; co-transcriptional
Form rule: numeric answer, no unit written next to it.

Some solved entries appear below for comparison.
[[record]]
mutation = "C64G C75A"
assay_result = 0.201

[[record]]
mutation = "G17U G40A"
assay_result = 0.246

[[record]]
mutation = "C30U U69A"
assay_result = 0.594

[[record]]
mutation = "C7A C75A"
assay_result = 0.0923

[[record]]
mutation = "U46A U60A"
assay_result = 0.751

[[record]]
mutation = "C64A G68C"
assay_result = 0.554

[[record]]
mutation = "U47G G76A"
assay_result = 1.25

[[record]]
mutation = "A16C C44U"
assay_result = 0.35

[[record]]
mutation = "G2A G10U"
assay_result = 0.0837

[[record]]
mutation = "C24A U65A"
assay_result = 0.735


The record that follows has no self-cleavage shown yet.
*Q* Entry C22G A42C : reported self-cleavage = ?
*A* 0.185

Attribution: the RNAGym collection of RNA variant scans (doi:10.7554/elife.80360)
